Data provenance: ChEMBL document CHEMBL2401717

Exercise: for every item that follows, state its recorded MIC.
test system: Escherichia coli; assay: Antibacterial activity against Escherichia coli DH52 after 24 hrs by twofold broth dilution method; assay type: functional; conditions: DH52, 24 h

Look over these answered cases.
{"compound": "O=[N+]([O-])c1cn(CCN(CCBr)Cc2ccc(Cl)c(Cl)c2)cn1", "experimental_target": "Escherichia coli", "obs_value": "32 µg/mL"}
{"compound": "COc1ccc2cc3[n+](cc2c1OC)CCc1cc2c(cc1-3)OCO2.[Cl-] [BERBERINE CHLORIDE]", "experimental_target": "Escherichia coli", "obs_value": "> 512 µg/mL"}
{"compound": "COc1ccc2cc3[n+](cc2c1OCCN(CCn1cnc([N+](=O)[O-])c1)Cc1ccc(Cl)cc1)CCc1cc2c(cc1-3)OCO2.[Cl-]", "experimental_target": "Escherichia coli", "obs_value": "64 µg/mL"}
{"compound": "O=[N+]([O-])c1cncn1CCN(CCBr)Cc1ccc(F)cc1F", "experimental_target": "Escherichia coli", "obs_value": "32 µg/mL"}
{"compound": "COc1ccc2cc3[n+](cc2c1OCCN(CCn1cnc([N+](=O)[O-])c1)Cc1cccc(Cl)c1)CCc1cc2c(cc1-3)OCO2.[Cl-]", "experimental_target": "Escherichia coli", "obs_value": "32 µg/mL"}
{"compound": "COc1ccc2cc3[n+](cc2c1OCCN(CCn1c([N+](=O)[O-])cnc1C)Cc1ccc(F)cc1F)CCc1cc2c(cc1-3)OCO2.[Cl-]", "experimental_target": "Escherichia coli", "obs_value": "128 µg/mL"}
{"compound": "O=[N+]([O-])c1cncn1CCN(CCBr)Cc1ccc(Cl)cc1", "experimental_target": "Escherichia coli", "obs_value": "128 µg/mL"}

We next turn to a different compound, shown below.
Prompt: Name the reported MIC value associated with the compound `COc1ccc2cc3[n+](cc2c1OCCN(CCn1cnc([N+](=O)[O-])c1)Cc1ccc(Cl)c(Cl)c1)CCc1cc2c(cc1-3)OCO2.[Cl-]`
Completion: 16 µg/mL

###

Exercise: for every item that follows, state its recorded MIC.
tested on: Escherichia coli; assay: Antibacterial activity against Escherichia coli DH52 after 24 hrs by twofold broth dilution method; type: functional; details: DH52, 24 h
Answers are plain numbers, in µg/mL.

Look over these answered cases.
{"compound_string": "O=[N+]([O-])c1cn(CCN(CCBr)Cc2cccc(Cl)c2)cn1", "MIC, µg/mL": 128}
{"compound_string": "Cc1ncc([N+](=O)[O-])n1CCN(CCBr)Cc1ccc(F)cc1F", "MIC, µg/mL": 32}
{"compound_string": "O=[N+]([O-])c1cncn1CCN(CCBr)Cc1ccc(Cl)c(Cl)c1", "MIC, µg/mL": 16}

Quick batch: MIC for everything below.
1. COc1ccc2cc3[n+](cc2c1OCCN(CCn1cncc1[N+](=O)[O-])Cc1ccc(Cl)c(Cl)c1)CCc1cc2c(cc1-3)OCO2.[Cl-]
2. O=[N+]([O-])c1cn(CCN(CCBr)Cc2ccc(F)cc2F)cn1
3. COc1ccc2cc3[n+](cc2c1OCCN(CCn1cnc([N+](=O)[O-])c1)Cc1ccccc1Cl)CCc1cc2c(cc1-3)OCO2.[Cl-]
4. COc1ccc2cc3[n+](cc2c1OCCN(CCn1cncc1[N+](=O)[O-])Cc1cccc(Cl)c1)CCc1cc2c(cc1-3)OCO2.[Cl-]
5. O=[N+]([O-])c1cncn1CCN(CCBr)Cc1cccc(Cl)c1

Completion:
1. 8
2. 32
3. 16
4. 32
5. 64

###

test system: Shigella dysenteriae; assay: Antibacterial activity against Shigella dysenteriae after 24 hrs by twofold broth dilution method; format: functional
measure_name: MIC (µg/mL)
One number for each entry, in µg/mL.

Quick batch: MIC for everything below.
1. COc1ccc2cc3[n+](cc2c1OCCN(CCn1c([N+](=O)[O-])cnc1C)Cc1ccc(F)cc1F)CCc1cc2c(cc1-3)OCO2.[Cl-]
2. COc1ccc2cc3[n+](cc2c1OCCN(CCn1cncc1[N+](=O)[O-])Cc1ccc(Cl)cc1)CCc1cc2c(cc1-3)OCO2.[Cl-]
3. CCn1cc(C(=O)O)c(=O)c2cc(F)c(N3CCNCC3)cc21
4. O=[N+]([O-])c1cncn1CCN(CCBr)Cc1cccc(Cl)c1

Completion:
[256, 32, 4, 256]
